# TESTED SYSTEM: T1, cynoTIGIT-mFc (fusion protein of cynoTIGIT extracellular domain and mouse IgG2a Fc fragment) (cynomolgus)
# T1 construct: also called monkey TIGIT; cynomolgus TIGIT-mFc fusion protein
# T1 sequence (chain, as listed by the source limits assumed): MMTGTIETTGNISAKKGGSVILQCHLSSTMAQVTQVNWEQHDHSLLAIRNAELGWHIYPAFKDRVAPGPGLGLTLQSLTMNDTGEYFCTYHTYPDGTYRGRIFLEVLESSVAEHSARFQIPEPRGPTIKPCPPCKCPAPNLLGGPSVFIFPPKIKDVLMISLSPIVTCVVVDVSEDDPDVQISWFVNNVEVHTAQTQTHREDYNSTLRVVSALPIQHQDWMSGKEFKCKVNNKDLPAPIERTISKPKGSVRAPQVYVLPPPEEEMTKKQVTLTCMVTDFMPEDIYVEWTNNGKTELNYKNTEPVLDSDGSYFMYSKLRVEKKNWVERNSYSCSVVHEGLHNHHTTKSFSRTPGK
# PROCEDURE SUMMARY: SPR (Biacore T200), antibody held by Fc affinity capture, cynoTIGIT-mFc in mobile phase, 1:1 Langmuir fit
VALUE KIND: koff (s⁻¹)
Give bare numbers, in s⁻¹.

Illustrative cases are given below, each with its answer.
BINDER: h1709-10 (antibody, human IgG4 S228P, kappa, V domains shown, also called humanized TIGIT antibody h1709-10) VH: EVQLVQSGAEVKKPGASVKVSCKASGYTFTDYYMHWVRQAPGQGLEWMGLVYPYNDNTGYNRKFKGRVTMTVDTSTSTVYMELNSLRSEDTAVYYCARGGPSNWNYFDYWGQGTLVTVSS VL: DIQMTQSPSSLSASVGDRVTITCKASQNVVTAVAWYQQKPGKSPKLLIYSASNRYTGVPDRFSGSGSGTDFTLTISSLQPEDFATYFCQQYTLYPLTFGGGTKVEIKR
UNIT NAME: s⁻¹
koff: 0.000415
//
BINDER: h1708-04 (antibody, human IgG4 S228P, kappa, V domains shown, also called humanized TIGIT antibody h1708-04) VH: EVQLVQSGAEVKKPGASVKVSCKASGYTFTNYWMHWVRQAPGQGLEWMGRIDPDSTGSKYNEKFKTRVTMTRDTSTSTVYMELSSLRSEDTAVYYCAREGAYGYYFDYWGQGTLVTVSS VL: DIQMTQSPSSLSASVGDRVTITCRASENIYSYLAWYQQKPGKSPKLLIYNARTLAEGVPSRFSGSGSGTDFTLTISSLQPEDFATYYCQYHSGSPLPFGGGTKVEIKR
UNIT NAME: s⁻¹
koff: 0.000352

// below: koff requested for another binder
Sample 22G2-H3Q (antibody, human IgG4 S228P, kappa, V domains shown) VH: QVQLQESGPGLVKPSETLSLTCTVSGGSVSSGIYYWSWIRQPPGKGLEWIGYIYYSGSTNYNPSLKSRVTISVDTSKNQFSLKLSSVTAADTAVYYCARDYYVSGNYYNVDYYFFGVDVWGQGTTVTVSS VL: EIVLTQSPATLSLSPGERATLSCRASQSVSSYLAWYQQKPGQAPRLLIYDASNRATGIPARFSGSGSGTDFTLTISSLEPEDFAVYYCQQRSNWPPLFTFGPGTKVDIKR — what was its koff? 0.000404
